// pIC50 lookup, one value per entry
targetOfAssay: EGF receptor autophosphorylation in A431 human epidermoid carcinoma cells (Homo sapiens)
Construct: endogenous in cells
Sequence (P00533 25-1210): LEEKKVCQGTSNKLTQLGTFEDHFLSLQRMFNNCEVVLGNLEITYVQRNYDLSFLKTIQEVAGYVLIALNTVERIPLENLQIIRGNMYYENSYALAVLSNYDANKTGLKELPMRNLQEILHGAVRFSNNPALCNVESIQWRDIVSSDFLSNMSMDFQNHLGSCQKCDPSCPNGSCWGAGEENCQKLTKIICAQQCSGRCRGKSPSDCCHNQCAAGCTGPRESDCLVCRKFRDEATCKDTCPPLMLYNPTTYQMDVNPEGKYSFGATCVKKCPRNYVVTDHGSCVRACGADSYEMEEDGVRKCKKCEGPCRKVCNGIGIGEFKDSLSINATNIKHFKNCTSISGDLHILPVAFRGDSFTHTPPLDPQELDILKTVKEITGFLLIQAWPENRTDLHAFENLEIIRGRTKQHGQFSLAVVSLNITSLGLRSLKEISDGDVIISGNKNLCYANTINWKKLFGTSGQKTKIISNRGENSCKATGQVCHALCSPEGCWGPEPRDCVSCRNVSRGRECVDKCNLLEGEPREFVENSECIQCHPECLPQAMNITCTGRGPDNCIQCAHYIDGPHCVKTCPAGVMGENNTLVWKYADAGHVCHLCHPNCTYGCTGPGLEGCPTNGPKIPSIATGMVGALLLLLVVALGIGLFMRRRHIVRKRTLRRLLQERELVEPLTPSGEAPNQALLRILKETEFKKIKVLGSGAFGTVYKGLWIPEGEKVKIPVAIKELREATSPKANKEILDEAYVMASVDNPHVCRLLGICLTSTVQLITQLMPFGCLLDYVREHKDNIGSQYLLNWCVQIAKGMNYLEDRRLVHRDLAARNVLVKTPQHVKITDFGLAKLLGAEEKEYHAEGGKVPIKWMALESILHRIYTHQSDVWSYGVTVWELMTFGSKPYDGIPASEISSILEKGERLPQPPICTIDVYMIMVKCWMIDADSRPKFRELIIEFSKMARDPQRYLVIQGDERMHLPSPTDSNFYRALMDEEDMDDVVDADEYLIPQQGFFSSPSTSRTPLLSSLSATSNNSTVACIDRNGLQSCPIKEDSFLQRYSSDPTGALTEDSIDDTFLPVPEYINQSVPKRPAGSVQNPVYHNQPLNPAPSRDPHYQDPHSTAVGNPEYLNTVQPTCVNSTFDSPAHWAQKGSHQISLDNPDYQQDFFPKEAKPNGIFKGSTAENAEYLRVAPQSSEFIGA
methodDescription: Inhibition of EGF-induced autophosphorylation in A431 epidermoid carcinoma cells
Structures can show the parent of a compound that is named as a salt.
Worth noting: pIC50 values are minus log10 of concentrations stated in mol/L.

{"compound": "Cn1c2ccccc2c2c(Nc3cccc(Br)c3)ncnc21", "metricName": "pIC50", "observedResult": 6.96}

Sample Brc1cccc(Nc2ncnc3cc4ccccc4cc23)c1 [Example 1, hydrochloride] ; pIC50 observed: 7.77

get_value(item= Brc1cccc(Nc2ncnc3[nH]c4ccccc4c23)c1 [Example 28, hydrochloride] , readout=pIC50) returns 6.20

Entry under test: `Brc1cccc(Nc2ncnc3c2sc2ccccc23)c1` . Its pIC50 was 6.77

Kindly note the recorded pIC50 for `Brc1cccc(Nc2ncnc3cc4nccnc4cc23)c1` , which is 7.51
